Molecular target: Mitogen-activated protein kinase kinase kinase kinase 4 (Homo sapiens) (UniProt O95819);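 further: reported figure is an averaged inhibition value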
Sequence (O95819 2-1239 limits assumed): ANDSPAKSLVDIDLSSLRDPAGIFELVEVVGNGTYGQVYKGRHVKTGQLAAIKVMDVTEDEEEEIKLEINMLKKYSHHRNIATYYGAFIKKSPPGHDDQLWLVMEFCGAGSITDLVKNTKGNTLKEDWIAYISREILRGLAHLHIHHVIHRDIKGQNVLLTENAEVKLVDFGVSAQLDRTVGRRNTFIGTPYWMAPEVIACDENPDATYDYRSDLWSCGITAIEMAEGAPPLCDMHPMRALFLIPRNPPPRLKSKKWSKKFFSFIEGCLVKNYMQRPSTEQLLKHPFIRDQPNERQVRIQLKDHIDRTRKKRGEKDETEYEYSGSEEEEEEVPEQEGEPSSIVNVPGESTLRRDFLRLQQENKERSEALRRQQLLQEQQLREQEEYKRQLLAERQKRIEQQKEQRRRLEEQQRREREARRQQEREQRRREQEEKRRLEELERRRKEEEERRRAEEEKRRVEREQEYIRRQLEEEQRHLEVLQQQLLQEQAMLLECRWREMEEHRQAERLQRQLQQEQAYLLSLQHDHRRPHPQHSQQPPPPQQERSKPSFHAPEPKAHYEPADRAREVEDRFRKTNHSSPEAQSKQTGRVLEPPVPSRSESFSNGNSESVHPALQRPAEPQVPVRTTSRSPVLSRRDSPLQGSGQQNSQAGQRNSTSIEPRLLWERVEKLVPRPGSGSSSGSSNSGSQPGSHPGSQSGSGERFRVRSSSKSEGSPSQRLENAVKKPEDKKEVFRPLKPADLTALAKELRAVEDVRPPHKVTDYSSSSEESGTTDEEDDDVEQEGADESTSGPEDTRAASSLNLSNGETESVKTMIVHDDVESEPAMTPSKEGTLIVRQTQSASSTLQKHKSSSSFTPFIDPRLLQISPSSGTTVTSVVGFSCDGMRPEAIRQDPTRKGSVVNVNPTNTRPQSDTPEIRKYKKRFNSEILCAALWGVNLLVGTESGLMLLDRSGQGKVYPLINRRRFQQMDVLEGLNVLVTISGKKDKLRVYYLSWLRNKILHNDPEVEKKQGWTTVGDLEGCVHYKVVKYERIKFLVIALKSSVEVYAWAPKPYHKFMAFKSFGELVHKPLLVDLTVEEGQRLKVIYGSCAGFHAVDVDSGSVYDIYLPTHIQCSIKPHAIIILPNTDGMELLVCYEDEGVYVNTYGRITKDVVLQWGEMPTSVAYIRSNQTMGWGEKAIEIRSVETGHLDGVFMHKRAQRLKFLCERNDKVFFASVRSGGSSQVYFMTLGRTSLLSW
Details: at 1 µM
Classes are defined on inhibition with ranges low bin (below 7%), mid bin (7% to below 20%), high bin (20% or more)

input: Input Fc1ccc(-c2ncn(C3CCNCC3)c2-c2ccnc(Oc3ccc(F)c(F)c3)n2)cc1 ; output its category
output: mid bin

input: Input Fc1ccc(-c2ncn(CCCN3CCOCC3)c2-c2ccncc2)cc1 ; output its category
output: low bin

input: Input NC(=O)c1ccc(Oc2nccc(-c3c(-c4ccc(F)cc4)ncn3C3CCNCC3)n2)cc1 ; output its category
output: low bin

input: Input c1ccc(-c2n[nH]cc2-c2ccnc(-c3ccc(OCCN4CCOCC4)cc3)c2)nc1 ; output its category
output: high bin

input: Input Cc1ccc(C(=O)NC2CCC2)cc1-c1ccc(C(=O)NCC2CC2)cc1 ; output its category
output: low bin

input: Input CCc1cccc(CC)c1/C=C/c1cncc(C(=O)NC)c1 ; output its category
output: mid bin

input: Input CCC(=O)Nc1ccc(C)c(-c2ccc(C(=O)NCC3CC3)cc2)c1 ; output its category
output: low bin

input: Input O=C(NCC1CC1)c1ccc(-c2cccc(C(=O)NC3CC3)c2)cc1 ; output its category
output: low bin

input: Input C/C(Nc1ccc(S(N)(=O)=O)cc1)=C1/C(=O)Nc2ccccc21 ; output its category
output: high bin

input: Input COc1ccc(-c2ccc3c(NC(=O)C4CC4)n[nH]c3n2)cc1 ; output its category
output: high bin

input: Input Clc1ccc(CNc2nccc(-c3cnn4ncccc34)n2)cc1 ; output its category
output: mid bin

input: Input CCS(=O)(=O)c1ccc(OC)c(Nc2ncc(-c3cccc(-c4ccccc4F)c3)o2)c1 ; output its category
output: mid bin

input: Input Fc1ccc(-c2ncn(C3CCNCC3)c2-c2ccnc(Oc3ccc4c(c3)OCO4)n2)cc1 ; output its category
output: mid bin

input: Input CCS(=O)(=O)c1ccc(OC)c(Nc2ncc(-c3ccccc3Cl)o2)c1 ; output its category
output: high bin

input: Input O=C1Nc2ccc(I)cc2C1=Cc1cc(Br)c(O)c(Br)c1 ; output its category
output: high bin

input: Input C[C@@H](Oc1cc(-n2cnc3ccc(OC4CCN(C)CC4)cc32)sc1C(N)=O)c1ccccc1Cl ; output its category
output: mid bin

input: Input O=C(Nc1n[nH]c2cc(-c3cc(F)ccc3F)ccc12)C1CC1 ; output its category
output: high bin

* * *

Molecular target: NT-3 growth factor receptor (Homo sapiens);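 further: mean percent inhibition of TRKC, reported within the GSK PKIS dataset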
Conditions: at 0.1 µM
Property: inhibition (%)
Answer in %, number only, no unit symbol.

input: Provide only the value of recorded inhibition for O=C(Nc1n[nH]c2nc(-c3ccco3)ccc12)C1CC1
output: 1.6

input: Provide only the value of recorded inhibition for COc1ccc2cc(-c3c(-c4ccncc4)nc(-c4ccc(S(C)(=O)=O)cc4C)n3C)ccc2c1
output: 2.38

input: Provide only the value of recorded inhibition for COc1cc2ncn(-c3cc(OCc4ccccc4C(F)(F)F)c(C(C)=O)s3)c2cc1OC
output: 0.64

input: Provide only the value of recorded inhibition for CN(C)c1ccc2c(c1)/C(=C/Nc1ccc(S(N)(=O)=O)cc1)C(=O)N2
output: 21

input: Provide only the value of recorded inhibition for Fc1ccc(-c2ncn(C3CCNCC3)c2-c2ccnc(Oc3ccc(Oc4ccccc4)cc3)n2)cc1
output: 2.44

input: Provide only the value of recorded inhibition for Fc1ccc(-c2c(-c3ccncc3)nc3n2CCS3)cc1
output: 3.54

input: Provide only the value of recorded inhibition for CN1CCN(CCCNc2nc3ccc(Oc4ccc(NC(=O)Nc5cc(C(F)(F)F)ccc5F)cc4)cc3[nH]2)CC1
output: 4.05

input: Provide only the value of recorded inhibition for Cc1ccc(NC(=O)c2ccoc2)cc1-c1ccc(C(=O)NCC2CC2)cc1
output: 2.37

input: Provide only the value of recorded inhibition for COc1cc(C)c(N(C)C(=O)CN(C)C)cc1Nc1nc(Nc2cccc(F)c2C(N)=O)c2cc[nH]c2n1
output: 1.87

input: Provide only the value of recorded inhibition for NC(=O)c1cc(-c2ccc(F)cc2)cc(-c2ccncc2)c1N
output: 3.87

input: Provide only the value of recorded inhibition for Cc1ccc(C(=O)NC2CCC2)cc1-c1ccc(C(=O)NCC2CC2)cc1
output: 2.08

input: Provide only the value of recorded inhibition for O=C1Nc2ccc(I)cc2C1=Cc1cc(Br)c(O)c(Br)c1
output: 1.67

input: Provide only the value of recorded inhibition for NC(=O)Cc1ccccc1Oc1nccc(-c2c(-c3ccc(F)cc3)ncn2C2CCNCC2)n1
output: 0.22

input: Provide only the value of recorded inhibition for CCc1ccc(Oc2nccc(-c3c(-c4ccc(F)cc4)ncn3C3CCNCC3)n2)cc1
output: 1.82

input: Provide only the value of recorded inhibition for CN(C)CCCNc1nccc(-c2c(-c3ccc(F)cc3)nn3cc(C(F)(F)F)ccc23)n1
output: 2.89

input: Provide only the value of recorded inhibition for COc1cc(Nc2ncc(-c3ccccc3)o2)cc(OC)c1OC
output: 2.64

input: Provide only the value of recorded inhibition for CCS(=O)(=O)c1ccc(OC)c(Nc2ncc(-c3cccc(-c4ccccc4F)c3)o2)c1
output: 7.3

input: Provide only the value of recorded inhibition for C[C@@H](Oc1cc(-n2cnc3ccc(OC4CCN(C)CC4)cc32)sc1C(N)=O)c1ccccc1Cl
output: 2.56

input: Provide only the value of recorded inhibition for O=C(NCC1CC1)c1ccc(-c2cccc(C(=O)NC3CC3)c2)cc1
output: 2.02

input: Provide only the value of recorded inhibition for COc1ccc(-c2ccc3c(NC(=O)C4CC4)n[nH]c3n2)cc1
output: -0.49
